Test system: ACHN renal
Assay summary: NCI tumour cell line growth inhibition, 48 h
Measure: TGI (µM)
# unit: µM | format: bare number

These recorded examples may help you get a feel for the data.
[[record]]
compound = "COc1c2c(cc3oc(=O)ccc13)OC(C)(C)C=C2"
unit_string = "µM"
recorded_measurement = 70

[[record]]
compound = "C=CCn1c(-c2ccc(N=NNc3ccc(-c4n[nH]c(=S)n4CC=C)cc3)cc2)n[nH]c1=S"
unit_string = "µM"
recorded_measurement = 5.09

[[record]]
compound = "CCCCc1ccc(Nc2nc(N)c3[nH]cnc3n2)cc1"
unit_string = "µM"
recorded_measurement = 35.5

[[record]]
compound = "CCCCC#Cc1c(I)n(C2OC(CO[Si](C)(C)C(C)(C)C)C3OC(C)(C)OC32)c(=O)[nH]c1=O (configuration not stated)"
unit_string = "µM"
recorded_measurement = 7.52

[[record]]
compound = "Cc1cc(C)c2c(=O)n(CC(O)CN3CCN(c4ncccn4)CC3)sc2n1 (configuration not stated)"
unit_string = "µM"
recorded_measurement = 32.4

[[record]]
compound = "COc1ccc(/C=C/C=C2C(=O)NC(=S)NC2=O)cc1"
unit_string = "µM"
recorded_measurement = 16.7

[[record]]
compound = "CC([C@H]1CCC2C3CCC4C(=O)C(NC=O)=CC[C@]4(C)C3CC[C@@]21C)N(C)C (some centres not stated)"
unit_string = "µM"
recorded_measurement = 17.2

[[record]]
compound = "COc1ccc(/C(C#N)=C/c2nc3c(N4CCOCC4)nc(Cl)nc3n2C)cc1OC"
unit_string = "µM"
recorded_measurement = 1.25

[[record]]
compound = "COc1ccc(NC(=O)CC(=O)n2nc(-c3ccccc3)c(N=Nc3ccc(C)cc3)c2-c2ccccc2)cc1"
unit_string = "µM"
recorded_measurement = 60.9


From here, focus on the item given below.
Looking for the measured TGI of `CCCCCCCC(=O)SCC/C=C/[C@@H]1CC(=O)NCc2cccc(n2)CN(Cc2ccc(Cl)cc2)CC(=O)N[C@@H](C(C)C)C(=O)O1` , can you help?
49.8

* * *

System: U251 CNS
Assay summary: NCI tumour cell line growth inhibition, 48 h
Measure: TGI

These recorded examples may help you get a feel for the data.
[[record]]
compound = "COc1ccc(NC(=O)CC(=O)n2nc(-c3ccccc3)c(N=Nc3ccc(C)cc3)c2-c2ccccc2)cc1"
measure = "TGI"
recorded_measurement = "47.5 µM"

[[record]]
compound = "O=C(O)/C=C/C(=O)Nc1cccc2c1-c1ccccc1C2=O"
measure = "TGI"
recorded_measurement = "> 57.5 µM"

[[record]]
compound = "NS(=O)(=O)OC[C@H]1O[C@@H](n2cnc3c(N[C@H]4CCc5ccccc54)ncnc32)[C@H](O)[C@@H]1O"
measure = "TGI"
recorded_measurement = "0.121 µM"


Looking for the measured TGI of `O=C1CCCc2ccc3c(c21)CC1(Cc2cc4c(cc2C1)CCCC4)C3` , can you help?
44.4 µM

* * *

Test system: OVCAR-8 ovarian
Assay summary: NCI tumour cell line growth inhibition, 48 h
The entries below come with measured TGI values attached.

These recorded examples may help you get a feel for the data.
[[record]]
compound = "COC1=C(C(=O)OC(C)(C)C)C23CCCCC2(C(C(=O)OC(C)(C)C)=C(OC)C3C(=O)OC(C)(C)C)C1C(=O)OC(C)(C)C (stereo not drawn)"
recorded_measurement = "> 100 µM"

[[record]]
compound = "COc1ccc(-n2cc(-c3ccc(Cl)cc3)[nH]c2=S)cc1Cl"
recorded_measurement = "> 100 µM"


Looking for the measured TGI of COC(=O)c1ccc2c(c1)CC1(C2)Cc2ccc3c(c2C1)CCC3 (stereo not drawn) , can you help?
> 100 µM
